conditions: in isopropyl acetate, 283.15 K
Measured parameter: solubility (mole fraction)
Reply: number alone, nothing else.

The reported value for COC(=O)[C@@H](N)CC(C)C.Cl in terms of solubility (mole fraction) is 0.000136

* * *

settings: in isopropyl acetate, 323.15 K
Measured parameter: solubility (mole fraction)
Reply: number alone, nothing else.

The reported value for COC(=O)[C@@H](N)CC(C)C.Cl in terms of solubility (mole fraction) is 0.000561

* * *

conditions: in n-butanol, 293.15 K
Measured parameter: solubility (mole fraction)

The reported value for COC(=O)[C@@H](N)CC(C)C.Cl in terms of solubility (mole fraction) is 0.0983

* * *

conditions: in methyl acetate, 293.15 K
Measured parameter: solubility (mole fraction)
Reply: number alone, nothing else.

The reported value for COC(=O)[C@@H](N)CC(C)C.Cl in terms of solubility (mole fraction) is 0.000629

* * *

settings: in n-hexane, 298.15 K
Measured parameter: solubility (mole fraction)
Reply: number alone, nothing else.

The reported value for COC(=O)[C@@H](N)CC(C)C.Cl in terms of solubility (mole fraction) is 0.000433

* * *

conditions: in 1,4-dioxane, 298.15 K
Measured parameter: solubility (mole fraction)

The reported value for COC(=O)[C@@H](N)CC(C)C.Cl in terms of solubility (mole fraction) is 0.0621

* * *

conditions: in acetonitrile, 303.15 K
Measured parameter: solubility (mole fraction)
Reply: number alone, nothing else.

The reported value for COC(=O)[C@@H](N)CC(C)C.Cl in terms of solubility (mole fraction) is 0.00401

* * *

conditions: in n-butanol, 313.15 K
Measured parameter: solubility (mole fraction)
Reply: number alone, nothing else.

The reported value for COC(=O)[C@@H](N)CC(C)C.Cl in terms of solubility (mole fraction) is 0.155

* * *

details: in n-butanol, 298.15 K
Measured parameter: solubility (mole fraction)
Reply: number alone, nothing else.

The reported value for COC(=O)[C@@H](N)CC(C)C.Cl in terms of solubility (mole fraction) is 0.109

* * *

settings: in n-propyl acetate, 318.15 K
Measured parameter: solubility (mole fraction)
Reply: number alone, nothing else.

The reported value for COC(=O)[C@@H](N)CC(C)C.Cl in terms of solubility (mole fraction) is 0.00455

* * *

details: in n-butanol, 323.15 K
Measured parameter: solubility (mole fraction)
Reply: number alone, nothing else.

The reported value for COC(=O)[C@@H](N)CC(C)C.Cl in terms of solubility (mole fraction) is 0.196

* * *

settings: in ethyl acetate, 308.15 K
Measured parameter: solubility (mole fraction)
Reply: number alone, nothing else.

The reported value for COC(=O)[C@@H](N)CC(C)C.Cl in terms of solubility (mole fraction) is 0.000593

* * *

conditions: in 2-butanone, 318.15 K
Measured parameter: solubility (mole fraction)
Reply: number alone, nothing else.

The reported value for COC(=O)[C@@H](N)CC(C)C.Cl in terms of solubility (mole fraction) is 0.00388

* * *

settings: in 2-butanone, 303.15 K
Measured parameter: solubility (mole fraction)
Reply: number alone, nothing else.

The reported value for COC(=O)[C@@H](N)CC(C)C.Cl in terms of solubility (mole fraction) is 0.00186

* * *

conditions: in isopropyl acetate, 303.15 K
Measured parameter: solubility (mole fraction)
Reply: number alone, nothing else.

The reported value for COC(=O)[C@@H](N)CC(C)C.Cl in terms of solubility (mole fraction) is 0.000246

* * *

conditions: in isopropyl acetate, 313.15 K
Measured parameter: solubility (mole fraction)
Reply: number alone, nothing else.

The reported value for COC(=O)[C@@H](N)CC(C)C.Cl in terms of solubility (mole fraction) is 0.000358

* * *

settings: in acetonitrile, 313.15 K
Measured parameter: solubility (mole fraction)
Reply: number alone, nothing else.

The reported value for COC(=O)[C@@H](N)CC(C)C.Cl in terms of solubility (mole fraction) is 0.00776

* * *

details: in dimethyl carbonate, 288.15 K
Measured parameter: solubility (mole fraction)
Reply: number alone, nothing else.

The reported value for COC(=O)[C@@H](N)CC(C)C.Cl in terms of solubility (mole fraction) is 0.000319

* * *

conditions: in 1,4-dioxane, 318.15 K
Measured parameter: solubility (mole fraction)
Reply: number alone, nothing else.

The reported value for COC(=O)[C@@H](N)CC(C)C.Cl in terms of solubility (mole fraction) is 0.11

* * *

conditions: in n-hexane, 288.15 K
Measured parameter: solubility (mole fraction)
Reply: number alone, nothing else.

The reported value for COC(=O)[C@@H](N)CC(C)C.Cl in terms of solubility (mole fraction) is 0.000331

* * *

conditions: in 2-butanone, 313.15 K
Measured parameter: solubility (mole fraction)
Reply: number alone, nothing else.

The reported value for COC(=O)[C@@H](N)CC(C)C.Cl in terms of solubility (mole fraction) is 0.00297

* * *

details: in n-propyl acetate, 313.15 K
Measured parameter: solubility (mole fraction)

The reported value for COC(=O)[C@@H](N)CC(C)C.Cl in terms of solubility (mole fraction) is 0.0036

* * *

conditions: in methyl acetate, 323.15 K
Measured parameter: solubility (mole fraction)
Reply: number alone, nothing else.

The reported value for COC(=O)[C@@H](N)CC(C)C.Cl in terms of solubility (mole fraction) is 0.00347

* * *

conditions: in dimethyl carbonate, 318.15 K
Measured parameter: solubility (mole fraction)
Reply: number alone, nothing else.

The reported value for COC(=O)[C@@H](N)CC(C)C.Cl in terms of solubility (mole fraction) is 0.00167

* * *

conditions: in acetone, 288.15 K
Measured parameter: solubility (mole fraction)
Reply: number alone, nothing else.

The reported value for COC(=O)[C@@H](N)CC(C)C.Cl in terms of solubility (mole fraction) is 0.00389

* * *

conditions: in 1,4-dioxane, 303.15 K
Measured parameter: solubility (mole fraction)
Reply: number alone, nothing else.

The reported value for COC(=O)[C@@H](N)CC(C)C.Cl in terms of solubility (mole fraction) is 0.0715

* * *

conditions: in 2-butanone, 283.15 K
Measured parameter: solubility (mole fraction)
Reply: number alone, nothing else.

The reported value for COC(=O)[C@@H](N)CC(C)C.Cl in terms of solubility (mole fraction) is 0.00114

* * *

conditions: in n-hexane, 308.15 K
Measured parameter: solubility (mole fraction)
Reply: number alone, nothing else.

The reported value for COC(=O)[C@@H](N)CC(C)C.Cl in terms of solubility (mole fraction) is 0.00063

* * *

conditions: in ethyl acetate, 298.15 K
Measured parameter: solubility (mole fraction)
Reply: number alone, nothing else.

The reported value for COC(=O)[C@@H](N)CC(C)C.Cl in terms of solubility (mole fraction) is 0.000342

* * *

details: in methyl acetate, 303.15 K
Measured parameter: solubility (mole fraction)

The reported value for COC(=O)[C@@H](N)CC(C)C.Cl in terms of solubility (mole fraction) is 0.00105

* * *

conditions: in 1,4-dioxane, 308.15 K
Measured parameter: solubility (mole fraction)
Reply: number alone, nothing else.

The reported value for COC(=O)[C@@H](N)CC(C)C.Cl in terms of solubility (mole fraction) is 0.0799

* * *

conditions: in methyl acetate, 308.15 K
Measured parameter: solubility (mole fraction)
Reply: number alone, nothing else.

The reported value for COC(=O)[C@@H](N)CC(C)C.Cl in terms of solubility (mole fraction) is 0.00138

* * *

conditions: in n-pentanol, 283.15 K
Measured parameter: solubility (mole fraction)

The reported value for COC(=O)[C@@H](N)CC(C)C.Cl in terms of solubility (mole fraction) is 0.0571

* * *

details: in acetonitrile, 283.15 K
Measured parameter: solubility (mole fraction)
Reply: number alone, nothing else.

The reported value for COC(=O)[C@@H](N)CC(C)C.Cl in terms of solubility (mole fraction) is 0.00109

* * *

details: in acetonitrile, 288.15 K
Measured parameter: solubility (mole fraction)
Reply: number alone, nothing else.

The reported value for COC(=O)[C@@H](N)CC(C)C.Cl in terms of solubility (mole fraction) is 0.00154

* * *

conditions: in isopropyl acetate, 288.15 K
Measured parameter: solubility (mole fraction)
Reply: number alone, nothing else.

The reported value for COC(=O)[C@@H](N)CC(C)C.Cl in terms of solubility (mole fraction) is 0.000152

* * *

details: in dimethyl carbonate, 313.15 K
Measured parameter: solubility (mole fraction)
Reply: number alone, nothing else.

The reported value for COC(=O)[C@@H](N)CC(C)C.Cl in terms of solubility (mole fraction) is 0.00127

* * *

conditions: in n-hexane, 303.15 K
Measured parameter: solubility (mole fraction)
Reply: number alone, nothing else.

The reported value for COC(=O)[C@@H](N)CC(C)C.Cl in terms of solubility (mole fraction) is 0.000505

* * *

settings: in n-butanol, 283.15 K
Measured parameter: solubility (mole fraction)
Reply: number alone, nothing else.

The reported value for COC(=O)[C@@H](N)CC(C)C.Cl in terms of solubility (mole fraction) is 0.0885
